# experimental_details: in vitro
# stated_conditions: male, mouse, microsomes, % remaining, Replicate 1 / Replicate 2
# Protocol: Metabolic stability of 1 was studied in pooled male mouse liver microsomes (final concentration 0.5 mg/mL, 5 mM MgCl 2, 100 mM phosphate buffer). The final concentration of test […] The mixture was pre-warmed 37°C for 5 min before addition of 50 μL of 10 mM NADPH solution at the final concentration of 1 mM and carried out at 37°C. 50 μL of ultra-pure H2O was used instead of NADPH solution in the […] negative control. […] Drug […] concentrations were determined using triple quad LC-MS (Table S5). […]
experimental_readout: remaining at 10 min, 1 µM (%)
Give just the numeric value; % need not be written.

[[record]]
compound = "O=C(O)[C@@H]1Cc2c([nH]c3cc(F)ccc23)[C@@H](c2ccc(Cl)cc2Cl)N1 [Compound 20c]"
meas_value = 91.4


As a next step, examine the compound that follows.
// field: remaining at 10 min, 1 µM; key: O=C(O)[C@@H]1Cc2c([nH]c3c(F)cccc23)[C@@H](c2ccc(Cl)cc2Cl)N1 [Compound 20d] ; value = 42.6
